Data origin, for the record: ChEMBL document CHEMBL1681717

- tested_on: Mitogen-activated protein kinase 9 (Homo sapiens)
- assay_explanation: Inhibition of recombinant JNK2 after 60 mins by TR-FRET assay
pIC50: −log10 of the molar value.
Everything with pIC50 lower than 7 is Condition not met; everything else, including exactly 7, is Condition met.

[
  {
    "item_smiles": "CCOC(=O)c1c(C2CC2)csc1NC(=O)Cc1ccc(OC)cc1",
    "group": "Condition not met"
  },
  {
    "item_smiles": "N#Cc1csc(NC(=O)Cc2cccc3cnccc23)c1-c1ncn[nH]1",
    "group": "Condition met"
  },
  {
    "item_smiles": "COC(=O)c1sccc1NC(=O)Cc1cccs1",
    "group": "Condition not met"
  },
  {
    "item_smiles": "COC(=O)c1c(C)csc1NC(=O)Cc1ccc(OCCCn2ccnc2)cc1",
    "group": "Condition not met"
  },
  {
    "item_smiles": "O=C(Cc1cccc2ncccc12)Nc1scc(Cl)c1-c1ncn[nH]1",
    "group": "Condition met"
  },
  {
    "item_smiles": "COC(=O)c1c(C)csc1NC(=O)Cc1cccc2nccnc12",
    "group": "Condition not met"
  },
  {
    "item_smiles": "O=C(CN1C(=O)CCc2ccccc21)Nc1scc(Br)c1-c1ncn[nH]1",
    "group": "Condition met"
  },
  {
    "item_smiles": "Cc1n[nH]c(-c2c(C)csc2NC(=O)Cc2cccc3nccnc23)n1",
    "group": "Condition not met"
  },
  {
    "item_smiles": "CCOC(=O)c1c(C#N)csc1NC(=O)Cc1ccc(OC)cc1",
    "group": "Condition not met"
  },
  {
    "item_smiles": "Cc1n[nH]c(-c2c(C)csc2NC(=O)Cc2ccc(OCCCN3CCCCC3)cc2)n1",
    "group": "Condition not met"
  },
  {
    "item_smiles": "O=C(Cc1cccc2cnccc12)Nc1scc(Br)c1-c1ncn[nH]1",
    "group": "Condition met"
  },
  {
    "item_smiles": "O=C(Cc1cccc2cnccc12)Nc1scc(Cl)c1-c1ncn[nH]1",
    "group": "Condition met"
  },
  {
    "item_smiles": "Cc1n[nH]c(-c2c(C)csc2NC(=O)CN2C(=O)CCc3ccccc32)n1",
    "group": "Condition met"
  },
  {
    "item_smiles": "N#Cc1csc(NC(=O)Cc2cccc3ncccc23)c1-c1nnc[nH]1",
    "group": "Condition met"
  },
  {
    "item_smiles": "Cc1csc(NC(=O)CN2C(=O)CCc3ccccc32)c1-c1ncn[nH]1",
    "group": "Condition met"
  },
  {
    "item_smiles": "C#Cc1csc(NC(=O)Cc2ccc(OC)cc2)c1C(=O)OCC",
    "group": "Condition not met"
  },
  {
    "item_smiles": "COC(=O)c1c(C)csc1NC(=O)Cc1ccc(-c2ccncc2)cc1",
    "group": "Condition not met"
  },
  {
    "item_smiles": "CCc1csc(NC(=O)Cc2ccc(OC)cc2)c1C(=O)OC",
    "group": "Condition not met"
  },
  {
    "item_smiles": "COC(=O)c1c(C)csc1NC(=O)Cc1cccc2cnccc12",
    "group": "Condition not met"
  },
  {
    "item_smiles": "O=C(CN1C(=O)CCc2ccccc21)Nc1scc(Cl)c1-c1ncn[nH]1",
    "group": "Condition met"
  }
]

* * *

- tested_on: Mitogen-activated protein kinase 9 (Homo sapiens, UniProt P45984)
- Sequence (P45984 whole entry): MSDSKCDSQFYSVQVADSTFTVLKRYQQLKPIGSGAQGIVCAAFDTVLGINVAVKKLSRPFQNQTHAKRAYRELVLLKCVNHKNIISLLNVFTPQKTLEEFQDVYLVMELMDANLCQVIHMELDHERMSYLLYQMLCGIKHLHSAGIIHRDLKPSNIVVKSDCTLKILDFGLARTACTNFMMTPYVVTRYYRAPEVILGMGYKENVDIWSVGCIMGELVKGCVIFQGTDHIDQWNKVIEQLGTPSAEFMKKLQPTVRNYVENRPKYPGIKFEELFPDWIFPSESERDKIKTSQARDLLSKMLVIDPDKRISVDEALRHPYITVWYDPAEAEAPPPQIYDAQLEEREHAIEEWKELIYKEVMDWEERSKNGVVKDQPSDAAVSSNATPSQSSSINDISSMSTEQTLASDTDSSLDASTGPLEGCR
- assay_explanation: Inhibition of recombinant JNK2 after 60 mins by TR-FRET assay
pIC50: −log10 of the molar value.
pIC50 values for the compounds below.

[
  {
    "item_smiles": "COC(=O)c1c(C)csc1NC(=O)Cc1ccc(OCCCN2CCCC2)cc1",
    "tested_on": "Mitogen-activated protein kinase 9 (Homo sapiens, UniProt P45984)",
    "qualifier_sign": "=",
    "pIC50": 5.59
  },
  {
    "item_smiles": "CCOC(=O)c1c(C(F)(F)F)csc1NC(=O)Cc1ccc(OC)cc1",
    "tested_on": "Mitogen-activated protein kinase 9 (Homo sapiens, UniProt P45984)",
    "qualifier_sign": "<",
    "pIC50": 4.30
  },
  {
    "item_smiles": "COC(=O)c1c(C)csc1NC(=O)Cc1cccc2ncccc12",
    "tested_on": "Mitogen-activated protein kinase 9 (Homo sapiens, UniProt P45984)",
    "qualifier_sign": "=",
    "pIC50": 6.39
  },
  {
    "item_smiles": "COC(=O)c1c(C)csc1NC(=O)CN1C(=O)CCc2ccccc21",
    "tested_on": "Mitogen-activated protein kinase 9 (Homo sapiens, UniProt P45984)",
    "qualifier_sign": "=",
    "pIC50": 6.15
  },
  {
    "item_smiles": "N#Cc1csc(NC(=O)CN2C(=O)CCc3ccccc32)c1-c1ncn[nH]1",
    "tested_on": "Mitogen-activated protein kinase 9 (Homo sapiens, UniProt P45984)",
    "qualifier_sign": "=",
    "pIC50": 8.10
  },
  {
    "item_smiles": "COc1ccc(CC(=O)Nc2scc(C)c2-c2nc(C)n[nH]2)cc1",
    "tested_on": "Mitogen-activated protein kinase 9 (Homo sapiens, UniProt P45984)",
    "qualifier_sign": "=",
    "pIC50": 6.08
  },
  {
    "item_smiles": "COC(=O)c1c(C)csc1NC(=O)Cc1ccc(OCCCN2CCCCC2)cc1",
    "tested_on": "Mitogen-activated protein kinase 9 (Homo sapiens, UniProt P45984)",
    "qualifier_sign": "=",
    "pIC50": 6.21
  },
  {
    "item_smiles": "COC(=O)c1c(C)csc1NC(=O)Cc1cccc2cc[nH]c12",
    "tested_on": "Mitogen-activated protein kinase 9 (Homo sapiens, UniProt P45984)",
    "qualifier_sign": "=",
    "pIC50": 5.38
  },
  {
    "item_smiles": "COC(=O)c1c(C)csc1NC(=O)Cc1ccc(OC)cc1",
    "tested_on": "Mitogen-activated protein kinase 9 (Homo sapiens, UniProt P45984)",
    "qualifier_sign": "=",
    "pIC50": 5.50
  }
]

* * *

- tested_on: Mitogen-activated protein kinase 14 (Homo sapiens, UniProt Q16539)
- Sequence (Q16539 whole entry): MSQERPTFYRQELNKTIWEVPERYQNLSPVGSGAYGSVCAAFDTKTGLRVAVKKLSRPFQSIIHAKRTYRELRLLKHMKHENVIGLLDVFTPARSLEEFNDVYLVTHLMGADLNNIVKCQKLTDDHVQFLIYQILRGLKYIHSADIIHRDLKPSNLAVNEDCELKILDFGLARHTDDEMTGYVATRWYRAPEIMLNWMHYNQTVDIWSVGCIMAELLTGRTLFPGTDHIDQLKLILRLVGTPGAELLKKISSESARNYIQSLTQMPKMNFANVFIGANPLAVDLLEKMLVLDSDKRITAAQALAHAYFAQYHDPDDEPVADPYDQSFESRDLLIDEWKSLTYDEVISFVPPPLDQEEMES
- assay_explanation: Inhibition of recombinant p38alpha after 60 mins by TR-FRET assay
pIC50: −log10 of the molar value.
pIC50 reference

[
  {
    "item_smiles": "N#Cc1csc(NC(=O)Cc2cccc3ncccc23)c1-c1nnc[nH]1",
    "tested_on": "Mitogen-activated protein kinase 14 (Homo sapiens, UniProt Q16539)",
    "pIC50": "< 4.30"
  },
  {
    "item_smiles": "Cc1n[nH]c(-c2c(C)csc2NC(=O)Cc2cccc3nccnc23)n1",
    "tested_on": "Mitogen-activated protein kinase 14 (Homo sapiens, UniProt Q16539)",
    "pIC50": "< 5.30"
  },
  {
    "item_smiles": "N#Cc1csc(NC(=O)Cc2cccc3cnccc23)c1-c1ncn[nH]1",
    "tested_on": "Mitogen-activated protein kinase 14 (Homo sapiens, UniProt Q16539)",
    "pIC50": "< 4.30"
  },
  {
    "item_smiles": "O=C(Cc1cccc2ncccc12)Nc1scc(Br)c1-c1ncn[nH]1",
    "tested_on": "Mitogen-activated protein kinase 14 (Homo sapiens, UniProt Q16539)",
    "pIC50": "< 4.30"
  },
  {
    "item_smiles": "Cc1n[nH]c(-c2c(C)csc2NC(=O)Cc2ccc(OCCCN3CCCCC3)cc2)n1",
    "tested_on": "Mitogen-activated protein kinase 14 (Homo sapiens, UniProt Q16539)",
    "pIC50": "< 5.30"
  },
  {
    "item_smiles": "COC(=O)c1sccc1NC(=O)Cc1cccs1",
    "tested_on": "Mitogen-activated protein kinase 14 (Homo sapiens, UniProt Q16539)",
    "pIC50": "< 4.30"
  },
  {
    "item_smiles": "Cc1csc(NC(=O)CN2C(=O)CCc3ccccc32)c1-c1ncn[nH]1",
    "tested_on": "Mitogen-activated protein kinase 14 (Homo sapiens, UniProt Q16539)",
    "pIC50": "< 4.30"
  }
]

* * *

- tested_on: Mitogen-activated protein kinase 14 (Homo sapiens, UniProt Q16539)
- assay_explanation: Inhibition of recombinant p38alpha after 60 mins by TR-FRET assay
pIC50: −log10 of the molar value.
Measured pIC50, listed per entry for reference.

[
  {
    "item_smiles": "O=C(Cc1cccc2ncccc12)Nc1scc(Cl)c1-c1ncn[nH]1",
    "pIC50": "< 4.30"
  },
  {
    "item_smiles": "Cc1n[nH]c(-c2c(C)csc2NC(=O)CN2C(=O)CCc3ccccc32)n1",
    "pIC50": "< 4.30"
  },
  {
    "item_smiles": "O=C(Cc1cccc2cnccc12)Nc1scc(Cl)c1-c1ncn[nH]1",
    "pIC50": "< 4.30"
  },
  {
    "item_smiles": "N#Cc1csc(NC(=O)CN2C(=O)CCc3ccccc32)c1-c1ncn[nH]1",
    "pIC50": "< 4.30"
  },
  {
    "item_smiles": "Cc1n[nH]c(-c2c(C)csc2NC(=O)Cc2cccc3ncccc23)n1",
    "pIC50": "< 4.30"
  },
  {
    "item_smiles": "Cc1nnc(-c2c(C)csc2NC(=O)Cc2ccc(-c3ccncc3)cc2)[nH]1",
    "pIC50": "< 5.30"
  },
  {
    "item_smiles": "O=C(CN1C(=O)CCc2ccccc21)Nc1scc(Br)c1-c1ncn[nH]1",
    "pIC50": "< 4.70"
  },
  {
    "item_smiles": "O=C(CN1C(=O)CCc2ccccc21)Nc1scc(Cl)c1-c1ncn[nH]1",
    "pIC50": "< 4.30"
  },
  {
    "item_smiles": "O=C(Cc1cccc2cnccc12)Nc1scc(Br)c1-c1ncn[nH]1",
    "pIC50": "< 4.30"
  },
  {
    "item_smiles": "Cc1csc(NC(=O)Cc2cccc3ncccc23)c1-c1ncn[nH]1",
    "pIC50": "< 4.30"
  }
]
